- Test system: NCI/ADR-RES ovarian
- method description: NCI tumour cell line growth inhibition, 48 h
recorded metric: TGI

                                    compound  recorded_metric      value
 0  Cc1cc(S(=O)(=O)Nc2nc3ccccc3c(=O)n2Cc2ccco2)c(S)cc1Cl              TGI   > 100 µM
 1                   CSC1=CC(=O)c2ccccc2C1=O              TGI    11.7 µM
 2                       COC(C)=NCCC1=CCCCC1              TGI   > 100 µM
 3  CC(CC(=O)N1C2CC3CCC2(CS1(=O)=O)C3(C)C)[Si](C)(C)C (stereo not drawn)              TGI   > 100 µM
 4  CC1(C)CC(=O)c2c(-c3ccc(Cl)cc3)c(C#N)c(=S)n(C3OC(CO)C(O)C(O)C3O)c2C1 (stereo not drawn)              TGI   > 100 µM
 5  CC(C)C[C@H](NC(=O)[C@@H](Cc1ccccc1)n1ccc(Nc2ccccc2)cc1=O)B(O)O              TGI   > 100 µM
 6  CCCCCCCCCCCCCCCC(=O)NS(=O)(=O)OC[C@H]1O[C@@H](n2cnc3c(N)ncnc32)[C@H](O)[C@@H]1O              TGI    3.55 µM
 7  CCCCCc1cc(/C=C2/N=C(c3ccc[nH]3)C=C2OC)[nH]c1C              TGI    1.14 µM
 8  COc1ccc(C[C@H]2COC(=O)[C@@H]2Cc2ccc(Br)cc2)cc1OC              TGI   > 100 µM
 9     CC1(C)N=C(C(N)=O)c2ncn(Cc3ccccc3)c2N1              TGI   > 100 µM
10  C[n+]1cccc(NC(=O)c2ccc3ccc4ccc(C(=O)Nc5ccc[n+](C)c5)nc4c3n2)c1              TGI   > 100 µM
11  COc1ccc(/C=C2/SC(=Nc3ccccc3)N(NC(=O)Cc3ccccc3)C2=O)cc1              TGI   > 100 µM
12  COc1cc2c(cc1NC(=O)c1ccccc1)c1c(n2S(=O)(=O)c2ccccc2)CCN(S(=O)(=O)c2ccccc2)C1              TGI   > 100 µM
13  CC(C)(C)N1CC1CNC(=O)C(=O)NCC1CN1C(C)(C)C (stereo not drawn)              TGI    > 54 µM
14  CCOC(=O)c1ccc(N=C2Sc3nc4ccccc4n3C2=Nc2ccc(C(=O)OCC)cc2)cc1              TGI    72.7 µM
15  O=C1/C(=C/c2ccc(Cl)cc2)CN(Cc2cn(CCCNc3ccnc4cc(Cl)ccc34)nn2)C/C1=C\c1ccc(Cl)cc1              TGI    6.51 µM
16  CC(C)N(C(C)C)S(=O)(=O)CC12CCC(C/C1=N\O)C2 (stereo not drawn)              TGI   > 100 µM
17  O=C(c1ccccc1)c1ccc(N2C(=O)/C(=C/c3cccc(Oc4ccccc4)c3)N=C2c2ccccc2)c(N2C(=O)/C(=C/c3cccc(Oc4ccccc4)c3)N=C2c2ccccc2)c1              TGI    69.1 µM
18  CC(=O)N1C(c2[nH]c3ccccc3c2Cc2ccccc2)CCN1c1ccccc1 (stereo not drawn)              TGI    > 10 µM
19  Nc1nc2ccc(CNc3ccc(C(=O)NC(CC(=O)O)C(=O)O)cc3)cc2c(=O)[nH]1 (stereo not drawn)              TGI   > 100 µM
20  COc1cccc(CCn2c(N)c(-c3cc(Cl)cc(Cl)c3)c3ccc([N+](=O)[O-])cc3c2=O)c1              TGI    > 55 µM
21       O=S(=O)(O)c1c(Cl)c(Cl)c(O)c2ncccc12              TGI    49.7 µM
22  Nc1c(C(=O)Nc2cccc(Cl)c2)sc2nc3c(cc12)C(O)CCC3 (stereo not drawn)              TGI   > 100 µM
23  CCCCCCCCCCCCC(O)C1CCC(C(O)CCCCC(O)CCCCCC2CC(CC(C)=O)C(=O)O2)O1 (stereo not drawn)              TGI     2.3 µM
24  C[C@@]12CC[C@@H](O)C[C@@H]1CC[C@H]1[C@H]2CC[C@@]2(C)[C@H](c3ccc(=O)oc3)CC[C@@]12O              TGI  0.0285 µM
25         CC/C(Cl)=N\OC(=O)Nc1ccc(F)c(Cl)c1              TGI    42.7 µM
26  Nc1ccc(Oc2ccc(C34CC5C6CC7(c8ccc(Oc9ccc(N)cc9)cc8)CC5C(C3)C(C7)C6C4)cc2)cc1              TGI   > 100 µM
27  CO[P@@]1(=O)O[C@@H](c2ccccc2)[C@H](O)[C@@]1(O)c1ccccc1              TGI   > 100 µM
28  CC(C)n1cc(-c2ccc3c(c2)N(C)CC3)c2c(NS(=O)(=O)c3ccn(C)n3)ccnc21              TGI   > 100 µM
29  C1=NN2C(c3ccccc3)=NOC2C2C(c3ccccc3)=NOC12 (stereo not drawn)              TGI   > 100 µM
30  CS(=O)(=O)Nc1cc(-c2ccc3ncc(C#N)c(Nc4ccc(F)c(Cl)c4)c3c2)cnc1Cl              TGI   > 100 µM
31  C/C(=C\[Si](C)(C)c1ccco1)C(C)(O)[C@H](C)O (stereo partly drawn)              TGI   > 100 µM
32  Cc1[nH]c(C(=O)Nc2cccc(OC3CCNCC3)c2)c(Cl)c1Cl              TGI    3.47 µM
33              O=c1[nH][nH]c(=O)n1Cc1ccccc1              TGI   > 100 µM
34  CC1=CC2(C)C=C[C@@H]1C(=O)[C@@]1(C)CC[C@@](O)(C(C)C)[C@H]1CC2              TGI      40 µM
35  CS(=O)(=O)N1CCC(Nc2ncc(C(=O)c3c(F)cccc3F)c(N)n2)CC1              TGI    > 25 µM
36  COC(=O)c1cc(/C=C/C(=O)Cc2ccccc2)cn1S(=O)(=O)c1ccccc1              TGI   > 100 µM
37  O=C1CSC(c2ccccc2)N1c1ccc(-c2ccc(-n3c(-c4ccccc4)nc4ccccc4c3=O)cc2)cc1 (stereo not drawn)              TGI   > 100 µM
